- MEASURED TARGET: UniProt P00747
- Sequence (P00747 97-580 limits assumed): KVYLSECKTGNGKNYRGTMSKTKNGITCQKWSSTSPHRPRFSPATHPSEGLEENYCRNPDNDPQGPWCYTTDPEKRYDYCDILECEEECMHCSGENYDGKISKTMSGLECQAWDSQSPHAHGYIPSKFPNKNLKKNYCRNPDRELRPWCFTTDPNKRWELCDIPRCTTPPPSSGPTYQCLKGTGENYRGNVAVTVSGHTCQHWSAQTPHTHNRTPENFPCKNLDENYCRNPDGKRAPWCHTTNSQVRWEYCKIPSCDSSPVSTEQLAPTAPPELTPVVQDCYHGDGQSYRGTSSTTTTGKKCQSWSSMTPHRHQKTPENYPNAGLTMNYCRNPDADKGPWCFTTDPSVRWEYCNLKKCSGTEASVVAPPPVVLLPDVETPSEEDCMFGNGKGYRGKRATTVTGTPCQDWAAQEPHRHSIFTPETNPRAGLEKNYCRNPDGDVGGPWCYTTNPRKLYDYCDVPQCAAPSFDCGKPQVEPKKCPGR
- Sequence (P00747 581-810 limits assumed): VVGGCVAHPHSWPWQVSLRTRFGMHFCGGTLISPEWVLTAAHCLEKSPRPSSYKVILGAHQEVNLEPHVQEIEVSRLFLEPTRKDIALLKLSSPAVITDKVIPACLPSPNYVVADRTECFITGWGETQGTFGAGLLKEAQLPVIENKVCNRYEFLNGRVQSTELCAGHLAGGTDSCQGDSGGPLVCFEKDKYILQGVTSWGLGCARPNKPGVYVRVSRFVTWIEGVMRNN
- EXPERIMENT NOTES: Relative affinity for Plasmin compared to compound 1
Is Selectivity at least 20? Then Condition met. If not, Condition not met.

// query Determine whether this molecule has Selectivity no lower than 20: N=C(N)c1ccc2[nH]c(-c3cc(CC(=O)O)cc(-c4cccc(C(=O)O)c4)c3O)cc2c1
// result Condition not met

// query Reported Selectivity reaches at least 20 for N=C(N)c1ccc2[nH]c(-c3cc(CCOP(=O)(O)O)cc(-c4cccc([N+](=O)[O-])c4)c3O)cc2c1 ?
// result Condition met

// query Record N=C(N)c1ccc2[nH]c(-c3cc(CC(=O)O)cc(-c4cccc(Cl)c4)c3O)cc2c1 ; criterion: Selectivity no lower than 20. Met?
// result Condition not met

// query Reported Selectivity at or above 20? N=C(N)c1ccc2[nH]c(-c3cc(CC(=O)O)cc(-c4ccccc4)c3O)cc2c1
// result Condition not met

// query Say whether N=C(N)c1cccc(-c2cc(CC(=O)O)cc(-c3cc4cc(C(=N)N)ccc4[nH]3)c2O)c1 shows Selectivity of 20 or more.
// result Condition not met
